This collection of values is drawn from PubChem BioAssay AID2060490.

# Test system: 885512-296-R-J2-PDC complex spheroid viability;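 also: spheroids exposed to the compounds for one week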
# Method Description: Anticancer human tumor 885512-296-R-J2-PDC patient-derived breast carcinoma cell line growth inhibition [GQUAD]
# Condition Details: curve of first compound; second compound 1 µM
# Source text: DNA G-quadruplex Stabilizer Agents in Combinations in Complex Spheroids A high-throughput screen of multi-cell type tumor spheroids was designed to identify active combinations of DNA G-quadruplex stabilizer agents and targeted small molecules. […] Compounds. […] If the clinical Cmax for an agent had not been determined, the highest concentration tested was 10 microM. […]
Exercise: state measured pIC50 for each of the molecules provided.
Bear in mind: pIC50 is minus log10 of a mol/L concentration; give just that figure.

Prompt: State, in one line, measured pIC50 of COc1ncnc(C2CC2)c1-c1ncc2cnn(Cc3ccc(-c4nc(C(F)(F)F)cn4C(C)C)cc3)c2n1 + Cc1[nH]c2ccc(F)cc2c1-c1nc2c3cccnc3c3ncccc3c2[nH]1
Completion: 7.03

Prompt: Given COc1ccc([C@@H](O)c2cc(-c3ncnc4cc(N5CCOCC5)ccc34)c(F)cc2Cl)nn1 + Cc1[nH]c2ccc(F)cc2c1-c1nc2c3cccnc3c3ncccc3c2[nH]1 , respond with its pIC50.
Completion: 5.36
